Listed below: Ki values for each entry.
# tested-system: Histamine H3 receptor (Homo sapiens, UniProt Q9Y5N1)
# Sequence (Q9Y5N1 whole entry): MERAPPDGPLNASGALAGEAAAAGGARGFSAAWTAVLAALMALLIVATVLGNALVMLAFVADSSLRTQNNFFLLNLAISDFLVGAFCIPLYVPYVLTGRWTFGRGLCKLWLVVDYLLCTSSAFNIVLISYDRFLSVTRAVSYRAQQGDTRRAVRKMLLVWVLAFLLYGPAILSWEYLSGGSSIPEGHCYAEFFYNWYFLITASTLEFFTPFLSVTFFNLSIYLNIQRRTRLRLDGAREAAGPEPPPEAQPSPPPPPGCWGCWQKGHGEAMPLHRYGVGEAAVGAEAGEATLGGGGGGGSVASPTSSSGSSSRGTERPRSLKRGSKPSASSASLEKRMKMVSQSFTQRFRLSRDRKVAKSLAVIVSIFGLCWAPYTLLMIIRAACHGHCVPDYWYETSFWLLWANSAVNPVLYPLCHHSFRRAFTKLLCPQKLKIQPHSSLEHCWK
reported-property: Ki (nM)

         smiles_record  quantity_unit  reported_value
0       CNCCc1c[nH]cn1             nM             2.4
1  N=C(N)SCCc1cnc[nH]1             nM             0.6

* * *

# tested-system: Hrh3 protein (Rattus norvegicus)
# Sequence (Q5PPG3 whole entry): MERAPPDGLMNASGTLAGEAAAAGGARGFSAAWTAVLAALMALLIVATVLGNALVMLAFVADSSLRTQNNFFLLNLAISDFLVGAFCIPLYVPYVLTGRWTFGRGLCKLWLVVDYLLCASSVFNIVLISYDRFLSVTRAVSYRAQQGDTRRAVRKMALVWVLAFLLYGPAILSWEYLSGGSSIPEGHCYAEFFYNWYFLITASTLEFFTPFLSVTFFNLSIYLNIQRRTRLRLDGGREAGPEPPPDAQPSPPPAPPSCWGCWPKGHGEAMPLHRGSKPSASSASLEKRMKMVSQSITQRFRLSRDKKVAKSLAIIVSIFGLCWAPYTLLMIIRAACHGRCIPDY
pKi: −log10 of the molar value.
reported-property: pKi

In [3]: df
Out[3]:
         smiles_record  reported_value
0  N=C(N)SCCc1cnc[nH]1            9.70

Value source: BindingDB's records for PubMed 10869375
